Attribution: patent US20160244437A1

Below are IC50 values recorded for human factor XIa (Homo sapiens, UniProt P03951).
Where a name gives a salt, the structure may show the parent alone.
Please give a number only; it is taken to be in nM.

[[record]]
compound = "COCCOCCOCCNC(=O)c1ccc(-c2cccc(C[C@H](NC(=O)[C@H]3CC[C@H](CN)CC3)C(=O)Nc3ccc(-c4nnn[nH]4)cc3)c2)c(C)c1 [Example 22, hydrochloride]"
value_reported = 2.4


Input: Record request: IC50 value, item CC(C)N1CCC(NC(=O)c2cccc(-c3cccc(C[C@H](NC(=O)[C@H]4CC[C@H](CN)CC4)C(=O)Nc4ccc(-c5nnc(Cl)[nH]5)cc4)c3)c2)CC1 [Example 30, hydrochloride]
Output: 5.8

Input: What about Cc1ccc(S(=O)(=O)N2CCOCC2)cc1-c1cccc(C[C@H](NC(=O)[C@H]2CC[C@H](CN)CC2)C(=O)Nc2ccc3[nH]c(=O)[nH]c3c2)c1 [Example 10, hydrochloride] ?
Output: 13

Input: What about Cc1cc(C(=O)NCCOCCOCCO)ccc1-c1cccc(C[C@H](NC(=O)[C@H]2CC[C@H](CN)CC2)C(=O)Nc2ccc(-c3nnn[nH]3)cc2)c1 [Example 25, hydrochloride] ?
Output: 4.4

Input: What about Cc1ccc(C[C@H](NC(=O)[C@H]2CC[C@H](CN)CC2)C(=O)Nc2ccc(-c3nnn[nH]3)cc2)cc1-c1cccc(C(=O)NCCOCCOCCO)c1 [Example 28, hydrochloride] ?
Output: 5.2

Input: What about CON(C)C(=O)c1ccc(F)c(-c2cccc(C[C@H](NC(=O)[C@H]3CC[C@H](CN)CC3)C(=O)Nc3ccc(-c4nnn[nH]4)cc3)c2)c1 [Example 45, hydrochloride] ?
Output: 5.8

Input: What about NC[C@H]1CC[C@H](C(=O)N[C@@H](Cc2cccc(-c3cncc(N)c3)c2)C(=O)Nc2ccc(-c3nnn[nH]3)cc2)CC1 [Example 72, hydrochloride] ?
Output: 5.3

Input: What about NC[C@H]1CC[C@H](C(=O)N[C@@H](Cc2cccc(-c3cccc(S(=O)(=O)NC4CC4)c3)c2)C(=O)Nc2ccc(-c3nnn[nH]3)cc2)CC1 [Example 6, hydrochloride] ?
Output: 1.9

Input: What about Cc1cc(S(=O)(=O)NC2CCNCC2)ccc1-c1cccc(C[C@H](NC(=O)[C@H]2CC[C@H](CN)CC2)C(=O)Nc2ccc(-c3nnc(Cl)[nH]3)cc2)c1 [Example 55, hydrochloride] ?
Output: 4.3

Input: What about Cc1ccc(S(=O)(=O)N2CCOCC2)cc1-c1cccc(C[C@H](NC(=O)[C@H]2CC[C@H](CN)CC2)C(=O)Nc2ccc(-c3noc(=O)[nH]3)cc2)c1 [Example 52, hydrochloride] ?
Output: 1.8
